test: Single-dose plasma pharmacokinetics of MK-8507 (suspension, study 1; tablet, study 2); format: in vivo; conditions: human, po, 30 mg, single oral dose 30 mg, suspension, fasted, n=6, read-out: C168hr (geometric mean [95% CI])
readoutName: concentration at 168 h (nM)
Numbers only, in nM.

q: Read off the recorded concentration at 168 h for N#Cc1cc(Cl)cc(Oc2c(C(F)(F)F)ncn(Cc3cc(C(F)(F)F)c(=O)[nH]n3)c2=O)c1
a: 100

----------
test: Multiple-dose (once weekly for 3 weeks) plasma pharmacokinetics of MK-8507 tablet; assay type: in vivo, human; details: human, plasma, oral, 400 mg, 400 mg tablet once weekly, wk 3, n=6; read-out: Cmax (geometric mean [95% CI])
readoutName: Cmax
Don't forget the unit after the value.

q: Read off the recorded Cmax for N#Cc1cc(Cl)cc(Oc2c(C(F)(F)F)ncn(Cc3cc(C(F)(F)F)c(=O)[nH]n3)c2=O)c1 [MK-8507]
a: 11.5 µM

----------
experiment: Single-dose plasma pharmacokinetics of MK-8507 (suspension, study 1; tablet, study 2); type: in vivo; details: human, po, 2 mg, single oral dose 2 mg, suspension, fasted, n=6, read-out: Tmax (median [min, max])
readoutName: Tmax (h)
Numbers only, in h.

q: Read off the recorded Tmax for N#Cc1cc(Cl)cc(Oc2c(C(F)(F)F)ncn(Cc3cc(C(F)(F)F)c(=O)[nH]n3)c2=O)c1
a: 2

----------
assay: Multiple-dose (once weekly for 3 weeks) plasma pharmacokinetics of MK-8507 tablet; format: in vivo, human; settings: human, plasma, oral, 400 mg, 400 mg tablet once weekly, wk 3, n=6; read-out: Tmax (median [min, max])
readoutName: Tmax (h)
Numbers only, in h.

q: Read off the recorded Tmax for N#Cc1cc(Cl)cc(Oc2c(C(F)(F)F)ncn(Cc3cc(C(F)(F)F)c(=O)[nH]n3)c2=O)c1
a: 4
